# TEST PROTOCOL: Inhibition of LPS/Galactosaimine-Induced Lethality (septic shock)
# Type: in vivo, Mice (C57BI/6J males)
# CONDITION SUMMARY: 25 mg/kg orally or i.p. one hour before LPS (100 ng) and d-galactosamine (8 mg) i.p.; survival 24 hours after challenge
Would you mind telling me the reported # dead/total at 25 mg/kg of each entry?

For the molecule shown here, CCOC1(CCN(C)C(=O)c2cc[n+]([O-])cc2)c2ccccc2CCc2ccccc21 , give the reported # dead/total at 25 mg/kg.
9/9

What # dead/total at 25 mg/kg value was documented for this molecule, C=CCC1(CCN(C)C)c2ccccc2CCc2ccccc21 ?
0/9

I'd like to know its # dead/total at 25 mg/kg. The molecule in question is CCOC1(CCN(C)S(C)(=O)=O)c2ccccc2CCc2ccccc21
6/9

Looking for the measured # dead/total at 25 mg/kg of CCOC1(CCN(C)C)c2ccccc2CCc2ccccc21 , can you help?
0/8

Now turn to the next molecule.
Entry C=CCC1(CCN2CCCC2)c2ccccc2CCc2ccccc21 : reported # dead/total at 25 mg/kg = ?
5/9

====

# TEST PROTOCOL: Inhibition of LPS/Galactosaimine-Induced Lethality (septic shock)
# Type: in vivo, Mice (C57BI/6J males)
# CONDITION SUMMARY: 25 mg/kg orally or i.p. one hour before LPS (100 ng) and d-galactosamine (8 mg) i.p.; survival 24 hours after challenge
Provide the recorded # dead/total at 25 mg/kg for the entries that follow.

Use these answered entries as a reference point.
Given the entry CCOC1(CCNC)c2ccccc2CCc2ccccc21 , report its measured # dead/total at 25 mg/kg.
0/9

// lookup # dead/total at 25 mg/kg for CCOC1(CCN(C)C(=O)c2ccc(C(=O)OC)cc2)c2ccccc2CCc2ccccc21
9/9

Can you look up the measured # dead/total at 25 mg/kg of C=CCC1(CCNC)c2ccccc2CCc2ccccc21 for me?
5/10

Entry under review: CCOC1(CCN(C)C)c2ccccc2CCc2ccc(Cl)cc21 (centres unmarked) . Reported # dead/total at 25 mg/kg?
3/10

// query # dead/total at 25 mg/kg value for entry CCOC1(CCN(C)C(=O)c2ccc(C(=O)O)cc2)c2ccccc2CCc2ccccc21
10/10

Okay, here is my list. What is # dead/total at 25 mg/kg for each of these?
1. CCOC1(CCNC)c2ccccc2COc2ccccc21 (centres unmarked)
2. CCOC1(CCN(C)C)c2ccccc2COc2ccccc21 (centres unmarked)
3. CCOC1(CCN(C)S(=O)(=O)c2ccccc2)c2ccccc2CCc2ccccc21
4. CCCC1(CCN(C)C)c2ccccc2CCc2ccccc21
5. CCOCC1(CN)c2ccccc2CCc2ccccc21
6. CCOCC1(CCN(C)C)c2ccccc2CCc2ccccc21

1. 8/9
2. 0/9
3. 8/10
4. 1/9
5. 9/10
6. 8/10

====

Task for the reader: assign each of the following molecules its reported # dead/total at 25 mg/kg.
# TEST PROTOCOL: Inhibition of LPS/Galactosaimine-Induced Lethality (septic shock)
# Format: in vivo, Mice (C57BI/6J males)
# CONDITION SUMMARY: 25 mg/kg orally or i.p. one hour before LPS (100 ng) and d-galactosamine (8 mg) i.p.; survival 24 hours after challenge

Here's what some known entries look like.
Which # dead/total at 25 mg/kg is listed for CCOC1(CCN(C)C(C)=O)c2ccccc2CCc2ccccc21 ?
8/8

Field request: # dead/total at 25 mg/kg | item: CCOCC1(CN(C)C)c2ccccc2CCc2ccccc21
8/10

For the molecule C=CCC1(CCN(C)C)c2ccccc2COc2ccccc21 (centres unmarked) , what # dead/total at 25 mg/kg is on record?
0/10

Look at this molecule and give its reported # dead/total at 25 mg/kg. CCCC1(CCN2CCCC2)c2ccccc2CCc2ccccc21
9/9

Quick one: # dead/total at 25 mg/kg of CCOCC1(CCNC)c2ccccc2CCc2ccccc21 ?
10/10

So what does the record say about # dead/total at 25 mg/kg for CCCC1(CCNC)c2ccccc2CCc2ccccc21 ?
9/10

What value of # dead/total at 25 mg/kg has been recorded for this entry: CCOC1(CCN2CCCC2)c2ccccc2COc2ccccc21 (centres unmarked)
1/8

Please look at the following molecule next.
Bench note: what # dead/total at 25 mg/kg did C=CCC1(CCNC)c2ccccc2COc2ccccc21 (centres unmarked) show?
3/10

Every entry's value here was drawn from patent US5767120A.
